- System: Biotinylated CoV2 Spike ECD PreS-AVI protein (SARS-CoV-2, UniProt P0DTC2 14-1208)
- Assay: Octet binning; competitor 7A9
Each item that follows carries a reported binning response.
Endpoint name: binning response

[
  {
    "Binder": "5A6 VHH-Fc (Fc fusion) QVQLVESGGGLAQAGGSLRLSCATSGLTFSMSAMGWFRQAPGNEREFVGVINWNGGSSRYADSVRGRFTISRDNAKNTVYLQMNSLKPEDTGVYYCAADALNIGTGEVNPRLYDYWGQGTQVMVSS",
    "Value": 0.37
  },
  {
    "Binder": "10B8 VHH-Fc (Fc fusion) QVQLVESGGGLVQPGGSLRLSCAASGITLDYYAIAWFRQAPGKEREGVSCFCSSDGDIRYADSVKGRFTISRDNAKNTVYLQMNSLKPEDTAVYYCATERVYSSTWFFHRYSELDFGSWGRGTQVTVSS",
    "Value": 0.42
  },
  {
    "Binder": "9B2 VHH-Fc (Fc fusion) QVQLVESGGGLVQPGGSLRLSCAASGFTLDNYAIGWFRQAPGKEREGVSCISSSDGDTQYADSVKGRFTISRDNAKNTVYLQMNSLKPEDTAVYYCAVEKVYARSWFFHLCSELDFGSWGQGTQVTVSS",
    "Value": 0.36
  },
  {
    "Binder": "19E10 VHH-Fc (Fc fusion) QVQLVESGGGLVQPGGSLRLSCVASGSTISINSMGWYRQAPGKAREMVATITNDGPIKYADPVKGRFTISRDNPKNTVYLQMNSLKPEDTAVYYCVADRAYWLAGEWEYWGQGTQVTVSS",
    "Value": 0.3
  },
  {
    "Binder": "13C8 VHH-Fc (Fc fusion) QVQLVESGGGLVQAGGSLRLSCAASGRTVNKYMTGWFRQTPGKEREFVASIDWSSTTTHYANSVKGRFTISRDKVKNTVYLQMNGLKPEDTAVYYCAAHQDSSYGYTILPIDYDSWGQGTQVTVSS",
    "Value": 0.37
  }
]
